- Test method notes: Cytotoxicity against human differentiated conditionally immortalized RPTEC cells assessed as reduction in cell viability incubated for 24 hrs by PrestoBlue reagent based assay
- Type: toxicity
- Study conditions: read-out: TC50
Starred links: 1 amine or outer side, 2 acyl side, 3 side chain; linkers in the order of their positions; H or OH if unused. Positions of bridges follow the written chain, without caps; N, C: chain ends. Non-standard residues stand in square brackets, D forms with d. Residues, ends and D or L forms follow the SMILES beside them. *: point of attachment. X2 = CC(C)CCCCC[C@@H](N[*:1])C(=O)[*:2]; S(3-Methylbutyl) = CC(C)CCS*; Dab = NCC[C@H](N)C(=O)O
Assignment: determine reported CC50 at 24 h for the given molecules.
The answer should read as a number with its unit following.

Input line: # get_value(readout='CC50 at 24 h', item= CC(C)CCSSC[C@@H](N)C(=O)N[C@H](C(=O)N[C@@H](CCN)C(=O)N[C@H]1CCNC(=O)[C@H]([C@@H](C)O)NC(=O)[C@H](CCN)NC(=O)[C@H](CCN)NC(=O)[C@H](CC(C)C)NC(=O)[C@@H](Cc2ccccc2)NC(=O)[C@H](CCN)NC1=O)[C@@H](C)O (H-[dC](S(3-Methylbutyl))T[Dab][Dab][Dab][dF]L[Dab][Dab]T; lactam 4-C) )
Output line: 192 µM

Input line: CC50 at 24 h lookup needed for CC(C)CCCCC[C@@H](N)C(=O)N[C@H](C(=O)N[C@@H](CCN)C(=O)N[C@H]1CCNC(=O)[C@H]([C@@H](C)O)NC(=O)[C@H](CCN)NC(=O)[C@H](CCN)NC(=O)[C@H](CC(C)C)NC(=O)[C@@H](Cc2ccccc2)NC(=O)[C@H](CCN)NC1=O)[C@@H](C)O (H-[X2]T[Dab][Dab][Dab][dF]L[Dab][Dab]T; lactam 4-C) , thanks.
Output line: 82 µM

* * *

- Test system: Erythrocyte
- Test method notes: Hemolytic activity in sheep erythrocytes at 128 ug/ml incubated for 1 hr by absorbance based analysis
- Type: toxicity, cell-based, Ovis aries
- Study conditions: dose 128 µg/ml
Positions of bridges follow the written chain, without caps; N, C: chain ends. Non-standard residues stand in square brackets, D forms with d. Residues, ends and D or L forms follow the SMILES beside them. *: point of attachment. S(3-Cl-benzyl) = Clc1cccc(CS*)c1; X6 = c1ccc(-c2ccc(S*)cc2)cc1; Dab = NCC[C@H](N)C(=O)O; X1 = CC(C)CCCCS*
Measurement label: Activity

CC(C)CCCCSSC[C@@H](N)C(=O)N[C@H](C(=O)N[C@@H](CCN)C(=O)N[C@H]1CCNC(=O)[C@H]([C@@H](C)O)NC(=O)[C@H](CCN)NC(=O)[C@H](CCN)NC(=O)[C@H](CC(C)C)NC(=O)[C@@H](Cc2ccccc2)NC(=O)[C@H](CCN)NC1=O)[C@@H](C)O (H-[dC](X1)T[Dab][Dab][Dab][dF]L[Dab][Dab]T; lactam 4-C) ... Non-Toxic
CC(C)C[C@@H]1NC(=O)[C@@H](Cc2ccccc2)NC(=O)[C@H](CCN)NC(=O)[C@@H](NC(=O)[C@H](CCN)NC(=O)[C@@H](NC(=O)[C@H](CSSc2ccc(-c3ccccc3)cc2)NC(=O)CN)[C@@H](C)O)CCNC(=O)[C@H]([C@@H](C)O)NC(=O)[C@H](CCN)NC(=O)[C@H](CCN)NC1=O (H-GC(X6)T[Dab][Dab][Dab][dF]L[Dab][Dab]T; lactam 5-C) ... Non-Toxic
CC(C)C[C@@H]1NC(=O)[C@@H](Cc2ccccc2)NC(=O)[C@H](CCN)NC(=O)[C@@H](NC(=O)[C@H](CCN)NC(=O)[C@@H](NC(=O)[C@H](N)CSSCc2cccc(Cl)c2)[C@@H](C)O)CCNC(=O)[C@H]([C@@H](C)O)NC(=O)[C@H](CCN)NC(=O)[C@H](CCN)NC1=O (H-[dC](S(3-Cl-benzyl))T[Dab][Dab][Dab][dF]L[Dab][Dab]T; lactam 4-C) ... Non-Toxic

* * *

- Tested on: Erythrocyte
- Test method notes: Hemolytic activity in sheep erythrocytes at 128 ug/ml incubated for 1 hr by absorbance based analysis
- Assay type: toxicity, cell-based, Ovis aries
- Study conditions: dose 128 µg/ml
Positions of bridges follow the written chain, without caps; N, C: chain ends. Non-standard residues stand in square brackets, D forms with d. Residues, ends and D or L forms follow the SMILES beside them. *: point of attachment. X3 = c1ccc(Oc2ccc(CS*)cc2)cc1; X5 = c1ccc(-c2ccc(CS*)cc2)cc1; S(3-Methylbutyl) = CC(C)CCS*; Dab = NCC[C@H](N)C(=O)O
Measurement label: Activity

CC(C)CCSSC[C@@H](N)C(=O)N[C@H](C(=O)N[C@@H](CCN)C(=O)N[C@H]1CCNC(=O)[C@H]([C@@H](C)O)NC(=O)[C@H](CCN)NC(=O)[C@H](CCN)NC(=O)[C@H](CC(C)C)NC(=O)[C@@H](Cc2ccccc2)NC(=O)[C@H](CCN)NC1=O)[C@@H](C)O (H-[dC](S(3-Methylbutyl))T[Dab][Dab][Dab][dF]L[Dab][Dab]T; lactam 4-C) ... Non-Toxic
CC(C)C[C@@H]1NC(=O)[C@@H](Cc2ccccc2)NC(=O)[C@H](CCN)NC(=O)[C@@H](NC(=O)[C@H](CCN)NC(=O)[C@@H](NC(=O)[C@H](N)CSSCc2ccc(-c3ccccc3)cc2)[C@@H](C)O)CCNC(=O)[C@H]([C@@H](C)O)NC(=O)[C@H](CCN)NC(=O)[C@H](CCN)NC1=O (H-[dC](X5)T[Dab][Dab][Dab][dF]L[Dab][Dab]T; lactam 4-C) ... Non-Toxic
CC(C)C[C@@H]1NC(=O)[C@@H](Cc2ccccc2)NC(=O)[C@H](CCN)NC(=O)[C@@H](NC(=O)[C@H](CCN)NC(=O)[C@@H](NC(=O)[C@H](N)CSSCc2ccc(Oc3ccccc3)cc2)[C@@H](C)O)CCNC(=O)[C@H]([C@@H](C)O)NC(=O)[C@H](CCN)NC(=O)[C@H](CCN)NC1=O (H-[dC](X3)T[Dab][Dab][Dab][dF]L[Dab][Dab]T; lactam 4-C) ... Non-Toxic

* * *

- Tested on: Erythrocyte
- Test method notes: Hemolytic activity in sheep erythrocytes at 128 ug/ml incubated for 1 hr by absorbance based analysis
- Format: toxicity, cell-based, Ovis aries
- Study conditions: dose 128 µg/ml
Starred links: 1 amine or outer side, 2 acyl side, 3 side chain; linkers in the order of their positions; H or OH if unused. Positions of bridges follow the written chain, without caps; N, C: chain ends. Non-standard residues stand in square brackets, D forms with d. Residues, ends and D or L forms follow the SMILES beside them. *: point of attachment. X2 = CC(C)CCCCC[C@@H](N[*:1])C(=O)[*:2]; S(2-cyclohexylethyl) = C1CCC(CCS*)CC1; Dab = NCC[C@H](N)C(=O)O; X4 = CCCCCCS*
Measurement label: Activity

CCCCCCSSC[C@@H](N)C(=O)N[C@H](C(=O)N[C@@H](CCN)C(=O)N[C@H]1CCNC(=O)[C@H]([C@@H](C)O)NC(=O)[C@H](CCN)NC(=O)[C@H](CCN)NC(=O)[C@H](CC(C)C)NC(=O)[C@@H](Cc2ccccc2)NC(=O)[C@H](CCN)NC1=O)[C@@H](C)O (H-[dC](X4)T[Dab][Dab][Dab][dF]L[Dab][Dab]T; lactam 4-C) ... Non-Toxic
CC(C)CCCCC[C@@H](N)C(=O)N[C@H](C(=O)N[C@@H](CCN)C(=O)N[C@H]1CCNC(=O)[C@H]([C@@H](C)O)NC(=O)[C@H](CCN)NC(=O)[C@H](CCN)NC(=O)[C@H](CC(C)C)NC(=O)[C@@H](Cc2ccccc2)NC(=O)[C@H](CCN)NC1=O)[C@@H](C)O (H-[X2]T[Dab][Dab][Dab][dF]L[Dab][Dab]T; lactam 4-C) ... Non-Toxic
CC(C)C[C@@H]1NC(=O)[C@@H](Cc2ccccc2)NC(=O)[C@H](CCN)NC(=O)[C@@H](NC(=O)[C@H](CCN)NC(=O)[C@@H](NC(=O)[C@H](CSSCCC2CCCCC2)NC(=O)CN)[C@@H](C)O)CCNC(=O)[C@H]([C@@H](C)O)NC(=O)[C@H](CCN)NC(=O)[C@H](CCN)NC1=O (H-GC(S(2-cyclohexylethyl))T[Dab][Dab][Dab][dF]L[Dab][Dab]T; lactam 5-C) ... Non-Toxic

These measurements were taken from ChEMBL document CHEMBL5150048.
